All figures here come from PubChem BioAssay AID1963871.

Measured viability, T/C of individual entries
Test system: KRAS-mutant PDC multicell tumor spheroid viability
measurement_description: Anticancer human tumor 521955-158-R2-J5-PDC patient-derived pancreatic carcinoma cell line growth inhibition [KRAS2]
measurement_context: second compound 0.1 µM; first compound 0.1 µM; stronger effect = lower value
reported_endpoint: viability, T/C (%)

compound="CC(=O)OC12COC1CC(O)C1(C)C(=O)C(O)C3=C(C)C(OC(=O)C(O)C(NC(=O)OC(C)(C)C)c4ccccc4)CC(O)(C(OC(=O)c4ccccc4)C21)C3(C)C (configuration not stated) + CC1OCC2(CCN(c3cnc(Sc4ccnc(N)c4Cl)c(N)n3)CC2)C1N" measurement_target="KRAS-mutant PDC multicell tumor spheroid viability" reading_unit=% value=11.9
compound="COC(=O)c1ccc2c(C(=Nc3ccc(N(C)C(=O)CN4CCN(C)CC4)cc3)c3ccccc3)c(O)[nH]c2c1 + C=CC(=O)N1CCN(c2nc(OCC3CCCN3C)nc3c2CCN(c2cccc4cccc(C)c24)C3)CC1CC#N" measurement_target="KRAS-mutant PDC multicell tumor spheroid viability" reading_unit=% value=69.8
compound="CCN1CCN(Cc2ccc(Nc3ncc(F)c(-c4cc(F)c5nc(C)n(C(C)C)c5c4)n3)nc2)CC1 + C=CC(=O)N1CCN(c2nc(=O)n(-c3c(C)ccnc3C(C)C)c3nc(-c4c(O)cccc4F)c(F)cc23)C(C)C1" measurement_target="KRAS-mutant PDC multicell tumor spheroid viability" reading_unit=% value=100
compound="COc1cc2nccc(Oc3ccc(NC(=O)C4(C(=O)Nc5ccc(F)cc5)CC4)cc3)c2cc1OC + C=CC(=O)N1CCN(c2nc(=O)n(-c3c(C)ccnc3C(C)C)c3nc(-c4c(O)cccc4F)c(F)cc23)C(C)C1" measurement_target="KRAS-mutant PDC multicell tumor spheroid viability" reading_unit=% value=122
compound="Cn1ncnc1[C@H]1c2n[nH]c(=O)c3cc(F)cc(c23)N[C@@H]1c1ccc(F)cc1 + CC1OCC2(CCN(c3cnc(Sc4ccnc(N)c4Cl)c(N)n3)CC2)C1N" measurement_target="KRAS-mutant PDC multicell tumor spheroid viability" reading_unit=% value=53.3
compound="COC(=O)c1ccc2c(C(=Nc3ccc(N(C)C(=O)CN4CCN(C)CC4)cc3)c3ccccc3)c(O)[nH]c2c1 + COc1cc2nc(C)nc(NC(C)c3cc(N)cc(C(F)(F)F)c3)c2cc1OC1CCOC1" measurement_target="KRAS-mutant PDC multicell tumor spheroid viability" reading_unit=% value=118
compound="CC1OCC2(CCN(c3cnc(Sc4ccnc(N)c4Cl)c(N)n3)CC2)C1N (configuration not stated) + C=CC(=O)N1CCN(c2nc(OCC3CCCN3C)nc3c2CCN(c2cccc4cccc(C)c24)C3)CC1CC#N" measurement_target="KRAS-mutant PDC multicell tumor spheroid viability" reading_unit=% value=88.1

---

Test system: KRAS-mutant PDC multicell tumor spheroid viability
measurement_description: Anticancer human tumor 521955-158-R2-J5-PDC cell line growth inhibition [KRAS2];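 further: viability read after seven days of drug exposure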
measurement_context: second compound 3.16 µM; first compound 1 µM; stronger effect = lower value
reported_endpoint: viability, T/C (%)

molecule="O=C(c1cc(Cc2n[nH]c(=O)c3ccccc23)ccc1F)N1CCN(C(=O)C2CC2)CC1 + CNCc1ccccc1-c1csc(C(C)Nc2nc(C)nc3cc(OC)c(OC)cc23)c1" reported_endpoint="viability, T/C" value=0.65
molecule="COc1cc2nccc(Oc3ccc(NC(=O)C4(C(=O)Nc5ccc(F)cc5)CC4)cc3)c2cc1OC + C=CC(=O)N1CCN(c2nc(=O)n(-c3c(C)ccnc3C(C)C)c3nc(-c4c(O)cccc4F)c(F)cc23)C(C)C1" reported_endpoint="viability, T/C" value=75.4
molecule="CCNC(=O)CC1N=C(c2ccc(Cl)cc2)c2cc(OC)ccc2-n2c(C)nnc21 (stereo not drawn) + C=CC(=O)N1CCN(c2nc(OCC3CCCN3C)nc3c2CCN(c2cccc4cccc(C)c24)C3)CC1CC#N" reported_endpoint="viability, T/C" value=0.29
